assay: Half life in NMRI mouse at 10 mg/kg, po; assay type: ADME, organism-based; conditions: in vivo
observationType: half-life (h)
// units = h; emit number, no label

| smi | half-life [h] |
| --- | --- |
| O=C(O)Cc1c(C(=O)N2CCC(c3ccccc3F)CC2)nn(-c2ccccc2Cl)c1-c1ccc(Cl)cc1 | 2.2 |

Now look at this entry.
Determine from records and report half-life for C[C@@H](NC(=O)c1nn(-c2ccccc2Cl)c(-c2ccc(Cl)cc2)c1Cc1nn[nH]n1)c1ccc(C(F)(F)F)cc1 3.1

----------
assay: Volume of distribution at steady state in NMRI mouse at 2 mg/kg, iv; assay type: ADME, organism-based; details: in vivo, read-out: Vdss
observationType: Vd (L/kg)
// units = L/kg; emit number, no label

| smi | Vd [L/kg] |
| --- | --- |
| C[C@@H](NC(=O)c1nn(-c2ccccc2Cl)c(-c2ccc(Cl)cc2)c1Cc1nn[nH]n1)c1ccc(C(F)(F)F)cc1 | 0.4 |

Now look at this entry.
Determine from records and report Vd for O=C(O)Cc1c(C(=O)N2CCC(c3ccccc3F)CC2)nn(-c2ccccc2Cl)c1-c1ccc(Cl)cc1 0.6

----------
experiment: Lipophilicity, logD of compound by chromatographic analysis; format: physicochemical
# cutoff 3 applies to chromatographic logD; >= gives true, < gives false

# example entries with known answers
| smi | groupLabel |
| --- | --- |
| N#Cc1cccc(OC2CCN(C(=O)c3nn(-c4ccccc4Cl)c(-c4ccc(Cl)cc4)c3CC(=O)O)CC2)c1 | true |
| O=C(O)Cc1c(C(=O)N2CCC(c3ccc(F)cc3)CC2)nn(-c2ccccc2Cl)c1-c1ccc(Cl)cc1 | false |

Is chromatographic logD at least 3? Consider CC(C)c1noc(C2(O)CCN(C(=O)c3nn(-c4ccccc4Cl)c(-c4ccc(Cl)cc4)c3CC(N)=O)CC2)n1 true

Is chromatographic logD at least 3? Consider NC(=O)Cc1c(C(=O)N2CCC(Oc3cccc(F)c3)CC2)nn(-c2ccccc2Cl)c1-c1ccc(Cl)cc1 true

Is chromatographic logD at least 3? Consider O=C(c1nn(-c2ccccc2Cl)c(-c2ccc(Cl)cc2)c1Cc1nn[nH]n1)N1CCC(Oc2cc(F)cc(F)c2)CC1 false

Is chromatographic logD at least 3? Consider CCN1C(=O)OC2(CCN(C(=O)c3nn(-c4ccccc4Cl)c(-c4ccc(Cl)cc4)c3CC(N)=O)CC2)C1=O false

Is chromatographic logD at least 3? Consider O=C(c1nn(-c2ccccc2Cl)c(-c2ccc(Cl)cc2)c1Cc1nn[nH]n1)N1CCC(Oc2ccc(F)cc2)CC1 false

----------
assay: AUC (infinity) in NMRI mouse at 10 mg/kg, po; format: ADME, organism-based; parameters: dose 10 mg/kg, route po; conditions: in vivo
observationType: AUC(0-inf) (µM·h)
// units = µM·h; emit number, no label

Determine from records and report AUC(0-inf) for C[C@@H](NC(=O)c1nn(-c2ccccc2Cl)c(-c2ccc(Cl)cc2)c1Cc1nn[nH]n1)c1ccc(C(F)(F)F)cc1 104

----------
test: Solubility of compound; assay type: physicochemical
Listing of entries alongside the reported solubility.
// units = µM; emit number, no label

# count of solved cases: 4
| smi | solubility, µM |
| --- | --- |
| O=C(c1nn(-c2ccccc2Cl)c(-c2ccc(Cl)cc2)c1Cc1nn[nH]n1)N1CCC(Oc2cccc(F)c2F)CC1 | 396 |
| NC(=O)Cc1c(C(=O)N2CCC(Oc3cccc(F)c3)CC2)nn(-c2ccccc2Cl)c1-c1ccc(Cl)cc1 | 9 |
| O=C(O)Cc1c(C(=O)N2CCC(Oc3cc(F)cc(F)c3)CC2)nn(-c2ccccc2Cl)c1-c1ccc(Cl)cc1 | 171 |
| O=C(c1nn(-c2ccccc2Cl)c(-c2ccc(Cl)cc2)c1Cc1nn[nH]n1)N1CCC(Oc2ccc(Cl)cc2)CC1 | 204 |

Determine from records and report solubility for CC(C)S(=O)(=O)N1CCC(NC(=O)c2nn(-c3ccccc3Cl)c(-c3ccc(Cl)cc3)c2CC(N)=O)CC1 33

Determine from records and report solubility for O=C(c1nn(-c2ccccc2Cl)c(-c2ccc(Cl)cc2)c1Cc1nn[nH]n1)N1CCC(c2ccccc2F)CC1 474

Determine from records and report solubility for O=C(O)Cc1c(C(=O)N2CCC(Oc3ccc(F)cc3)CC2)nn(-c2ccccc2Cl)c1-c1ccc(Cl)cc1 118

Determine from records and report solubility for CC(C)c1noc(C2(O)CCN(C(=O)c3nn(-c4ccccc4Cl)c(-c4ccc(Cl)cc4)c3CC(N)=O)CC2)n1 4

Determine from records and report solubility for N#Cc1ccc(CNC(=O)c2nn(-c3ccccc3Cl)c(-c3ccc(Cl)cc3)c2CC(N)=O)cc1 16

Determine from records and report solubility for NC(=O)Cc1c(C(=O)NC2CCN(C(=O)C3CC3)CC2)nn(-c2ccccc2Cl)c1-c1ccc(Cl)cc1 81

Determine from records and report solubility for CC(=O)N1CCC(NC(=O)c2nn(-c3ccccc3Cl)c(-c3ccc(Cl)cc3)c2CC(N)=O)CC1 51

Determine from records and report solubility for C[C@@H](NC(=O)c1nn(-c2ccccc2Cl)c(-c2ccc(Cl)cc2)c1Cc1nn[nH]n1)c1ccc(C(F)(F)F)cc1 250

Determine from records and report solubility for O=C(c1nn(-c2ccccc2Cl)c(-c2ccc(Cl)cc2)c1Cc1nn[nH]n1)N1CCC(Oc2cccc(Cl)c2)CC1 201

Determine from records and report solubility for O=C(c1nn(-c2ccccc2Cl)c(-c2ccc(Cl)cc2)c1Cc1nn[nH]n1)N1CCC(Oc2ccc(F)cc2)CC1 500

Determine from records and report solubility for O=C(c1nn(-c2ccccc2Cl)c(-c2ccc(Cl)cc2)c1Cc1nn[nH]n1)N1CCC(Oc2ccc(C(F)(F)F)cc2)CC1 140

Determine from records and report solubility for O=C(O)Cc1c(C(=O)N2CCC(Oc3ccc(OC(F)(F)F)cc3)CC2)nn(-c2ccccc2Cl)c1-c1ccc(Cl)cc1 176
